Recorded cytotoxicity (ADCC, 51Cr release) on TGBC14TKB, human NK cells for the following binders
- test target: T1, CAPRIN-1 protein expressed on the cell surface of human cancer cells (human, UniProt Q14444 2-709)
- T1 sequence (looked up): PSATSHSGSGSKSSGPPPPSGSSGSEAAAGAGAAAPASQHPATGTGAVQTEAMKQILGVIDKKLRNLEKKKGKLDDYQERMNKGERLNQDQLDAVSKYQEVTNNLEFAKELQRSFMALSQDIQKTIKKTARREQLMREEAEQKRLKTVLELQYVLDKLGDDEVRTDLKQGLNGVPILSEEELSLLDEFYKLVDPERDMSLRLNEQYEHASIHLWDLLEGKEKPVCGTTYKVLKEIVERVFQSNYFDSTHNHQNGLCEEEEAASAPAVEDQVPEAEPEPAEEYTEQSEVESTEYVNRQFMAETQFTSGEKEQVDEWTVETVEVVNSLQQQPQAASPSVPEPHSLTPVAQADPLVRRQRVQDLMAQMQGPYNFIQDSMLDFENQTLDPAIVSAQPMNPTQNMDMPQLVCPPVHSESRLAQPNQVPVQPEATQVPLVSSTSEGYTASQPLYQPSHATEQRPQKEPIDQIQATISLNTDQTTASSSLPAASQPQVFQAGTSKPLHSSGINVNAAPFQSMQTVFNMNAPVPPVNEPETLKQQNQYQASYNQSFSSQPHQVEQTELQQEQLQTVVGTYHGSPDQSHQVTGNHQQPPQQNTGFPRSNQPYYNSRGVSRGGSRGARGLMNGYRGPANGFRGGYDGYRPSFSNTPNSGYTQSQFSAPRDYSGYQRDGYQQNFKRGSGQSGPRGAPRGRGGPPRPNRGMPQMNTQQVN
- protocol text: cell-based or functional assay

Below: 4 binders and their reported cytotoxicity (ADCC, 51Cr release) on TGBC14TKB, human NK cells.
human-chicken chimeric antibody #2 (antibody, human IgG1, kappa, V domains shown) VH: AVTLDESGGGLQTPGGGLSLVCKASGFTFSSFDMGWVRQAPGKGLEFVAQINDAGSRTWYATAVKGRATISRDNGQTTVRLQLNNLRAEDTGTYYCTRGSGYVGAGAIDAWGHGTEVIVSA VL: AALTQPSSVSANPGETVKITCSGGSGYYGWYQQQKSPGSAPVTVIYQNDKRPSDIPSRFSGSGSGSTNTLTITGVQAEDEAVYFCGRYDSTDSGIFGAGTTLTVLT: ≥ 15%
mouse monoclonal antibody #6 (antibody) chain 1: DAELVKPGASVKISCKASGYTFTDHSIHWVQQKPEQGLEWIGYISPGNGNIKYNEKFKGKATLTADKSSSTAYMQLNSLTSEDSAVYFCKRSLGRGGPYYFDYWGQGTTVTVSS chain 2: DIVLTQAAPSLPVTPGESVSISCRSSKSLLHSNGNTYLYWFLQRPGQSPQLLIYRMSNLASGVPDRFSGSGSGTAFTLRISRVEAEDVGVYYCMQHREYPVTFGSGPN: ≥ 15%
mouse monoclonal antibody #13 (antibody, V domains shown, mouse hybridoma antibody; also called anti-CAPRIN-1 mouse monoclonal antibody #13; anti-CAPRIN-1 monoclonal antibody #13) VH: EVQLHQFGAELVKPGASVKISCKASGYTFTDYNMDWVKQSHGKSLEWIGDINPNYDSTSYNQKFKGKATLTVDKSSSTAYMELRSLTSEDTAVYYCARSRSYDYEGFAYWGQGTLVTVSAAKTTPPSVY VL: AVLRCSRGLLVIWISDIQLTQSPSSLAVTAGEKVTMSCKSSQSLLWSVNQKNYLSWYQQKQRQPPKLLIYGASIRESWVPDRFTGSGSGTDFTLTISNVHAEDLAVYYCQHNHGSFLPSRSEQVPSWRSNNR: ≥ 15%
mouse monoclonal antibody #5 (antibody, V domains shown, mouse hybridoma antibody; also called anti-CAPRIN-1 mouse monoclonal antibody #5; anti-CAPRIN-1 monoclonal antibody #5) VH: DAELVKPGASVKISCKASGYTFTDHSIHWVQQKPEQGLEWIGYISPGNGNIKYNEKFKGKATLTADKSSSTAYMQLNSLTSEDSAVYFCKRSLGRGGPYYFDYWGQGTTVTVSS VL: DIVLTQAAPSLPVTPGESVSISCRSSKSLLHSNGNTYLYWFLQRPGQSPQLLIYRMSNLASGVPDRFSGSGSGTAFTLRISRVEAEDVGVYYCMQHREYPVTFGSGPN: ≥ 15%

# cytotoxicity (ADCC, 51Cr release) on TGBC14TKB, human NK cells lookup, item human-chicken chimeric antibody #1 (antibody, human IgG1, kappa, V domains shown, also called human-chicken chimeric monoclonal antibody #1) VH: AVTLDESGGGLQMSRGGLSLVCKASGFDFSSYQMNWIRQAPGKGLEFVAAINKFGNSTGHGAAVKGRVTISRDNGQSTVRLQLNNLRAEDTAIYFCTKHAYGYCGSGTWCAAGEIDAWGHGTEVIVSS VL: QAASTQPSSVSANPGETVEITCSGGGSYSYGWFQQKSPGSAPVTVIYYNNKRPSDIPSRFSGSKSGSTGTLTITGVQADDEAVYYCGSGDSTDTAVFGAGTTLTVLG
20%
